target: B-Raf (Homo sapiens); test: Kinase selectivity assay, B-Raf; type: biochemical; details: Table 3 selectivity profile
Sequence (P15056 whole entry, species assumed): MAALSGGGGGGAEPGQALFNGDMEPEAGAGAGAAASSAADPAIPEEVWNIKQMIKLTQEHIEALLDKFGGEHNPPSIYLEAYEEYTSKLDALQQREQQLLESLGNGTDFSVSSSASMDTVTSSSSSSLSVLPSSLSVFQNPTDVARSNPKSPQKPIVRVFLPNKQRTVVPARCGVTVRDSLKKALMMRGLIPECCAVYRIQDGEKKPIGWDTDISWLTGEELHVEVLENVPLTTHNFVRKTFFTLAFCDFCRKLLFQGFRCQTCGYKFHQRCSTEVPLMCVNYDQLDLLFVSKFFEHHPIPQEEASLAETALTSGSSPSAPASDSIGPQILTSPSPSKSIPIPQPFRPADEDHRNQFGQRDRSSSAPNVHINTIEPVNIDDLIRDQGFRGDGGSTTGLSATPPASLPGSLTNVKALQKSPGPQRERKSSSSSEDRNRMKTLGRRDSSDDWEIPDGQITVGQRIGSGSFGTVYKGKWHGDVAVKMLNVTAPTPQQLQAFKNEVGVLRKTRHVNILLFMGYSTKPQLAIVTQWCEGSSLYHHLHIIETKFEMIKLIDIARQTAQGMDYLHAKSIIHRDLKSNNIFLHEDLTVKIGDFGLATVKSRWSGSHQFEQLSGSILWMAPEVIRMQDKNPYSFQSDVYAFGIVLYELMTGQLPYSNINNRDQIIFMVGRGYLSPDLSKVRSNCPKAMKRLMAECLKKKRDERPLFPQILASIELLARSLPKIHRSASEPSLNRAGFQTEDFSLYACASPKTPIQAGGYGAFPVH
property.measured: IC50

[[record]]
molecule_smiles = "O=C(Nc1ccc(-c2ccc(NC(=O)C3CC3)nc2)cc1)Nc1cccc(C(F)(F)F)c1"
target_or_test_system = "B-Raf (Homo sapiens)"
result = "57.2 nM"


* * *

target: TIE-2 (Homo sapiens, UniProt Q02763); assay: ADP-Glo kinase inhibition assay, TIE-2; assay type: biochemical; conditions: Table 1, ATP 50 μM, read-out: Tie-2 inhibitory activity (IC50)
Sequence (Q02763 23-1124): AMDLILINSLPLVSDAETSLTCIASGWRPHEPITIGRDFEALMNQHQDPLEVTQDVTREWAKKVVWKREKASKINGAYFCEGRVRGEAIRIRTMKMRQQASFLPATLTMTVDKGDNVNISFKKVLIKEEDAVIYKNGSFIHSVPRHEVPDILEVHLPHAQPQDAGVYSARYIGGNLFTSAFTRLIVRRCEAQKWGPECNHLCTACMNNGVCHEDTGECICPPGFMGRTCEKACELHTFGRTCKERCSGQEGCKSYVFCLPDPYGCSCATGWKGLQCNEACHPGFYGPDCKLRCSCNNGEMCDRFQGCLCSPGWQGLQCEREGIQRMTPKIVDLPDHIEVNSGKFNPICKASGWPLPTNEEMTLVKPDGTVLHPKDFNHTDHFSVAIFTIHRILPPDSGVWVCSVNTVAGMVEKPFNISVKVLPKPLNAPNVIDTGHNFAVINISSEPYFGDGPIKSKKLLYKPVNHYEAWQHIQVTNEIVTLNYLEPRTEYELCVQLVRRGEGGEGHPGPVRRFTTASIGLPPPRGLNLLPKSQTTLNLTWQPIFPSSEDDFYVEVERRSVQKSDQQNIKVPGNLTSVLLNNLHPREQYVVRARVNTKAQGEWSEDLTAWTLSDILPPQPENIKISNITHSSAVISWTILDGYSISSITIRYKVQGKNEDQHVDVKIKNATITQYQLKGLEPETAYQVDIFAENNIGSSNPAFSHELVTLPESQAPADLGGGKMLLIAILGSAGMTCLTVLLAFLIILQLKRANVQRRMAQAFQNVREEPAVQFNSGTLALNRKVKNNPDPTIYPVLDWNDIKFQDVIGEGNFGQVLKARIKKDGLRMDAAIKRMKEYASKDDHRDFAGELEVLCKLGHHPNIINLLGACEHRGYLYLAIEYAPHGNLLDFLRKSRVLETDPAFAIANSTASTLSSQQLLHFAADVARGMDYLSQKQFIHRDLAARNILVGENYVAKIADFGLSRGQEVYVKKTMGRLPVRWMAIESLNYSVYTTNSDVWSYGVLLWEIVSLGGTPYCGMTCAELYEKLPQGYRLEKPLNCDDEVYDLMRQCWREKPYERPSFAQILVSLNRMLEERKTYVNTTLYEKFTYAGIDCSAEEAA
pIC50: −log10 of the molar value.
property.measured: pIC50

[[record]]
molecule_smiles = "CN(C)C(=O)Nc1ccc(-c2ccc(NC(=O)C3CC3)nc2)cc1"
readout_qualifier = "<"
quantitative_result = 6.00

[[record]]
molecule_smiles = "CC(C)(C)NC(=O)Nc1ccc(-c2ccc(NC(=O)C3CC3)nc2)cc1"
readout_qualifier = "="
quantitative_result = 6.07

[[record]]
molecule_smiles = "O=C(Nc1ccc(-c2ccc(NC(=O)C3CC3)nc2)cc1)Nc1ccccc1F"
readout_qualifier = "<"
quantitative_result = 6.00

[[record]]
molecule_smiles = "O=C(Nc1ccc(OC(F)(F)F)cc1)Nc1ccc(-c2ccc(NC(=O)C3CC3)nc2)cc1"
readout_qualifier = "<"
quantitative_result = 6.00

[[record]]
molecule_smiles = "O=C(Nc1ccc(-c2ccc(NC(=O)C3CC3)nc2)cc1)Nc1cccc(C(F)(F)F)c1"
readout_qualifier = "="
quantitative_result = 8.14

[[record]]
molecule_smiles = "O=C(Nc1ccc(-c2ccc(NC(=O)C3CC3)nc2)cc1)Nc1ccc(C(F)(F)F)c(Cl)c1"
readout_qualifier = "="
quantitative_result = 7.21

[[record]]
molecule_smiles = "O=C(Nc1ccc(-c2ccc(NC(=O)C3CC3)nc2)cc1)Nc1ccc(F)c(F)c1"
readout_qualifier = "<"
quantitative_result = 6.00

[[record]]
molecule_smiles = "O=C(Nc1ccc(-c2ccc(NC(=O)C3CC3)nc2)cc1)Nc1ccc(Cl)c(C(F)(F)F)c1"
readout_qualifier = "="
quantitative_result = 8.08


* * *

target: EphB4 (Homo sapiens, UniProt P54760); assay: ADP-Glo kinase inhibition assay, EphB4; format: biochemical; details: Table 2, ATP 50 μM, read-out: EphB4 inhibitory activity (IC50)
Sequence (P54760 16-987): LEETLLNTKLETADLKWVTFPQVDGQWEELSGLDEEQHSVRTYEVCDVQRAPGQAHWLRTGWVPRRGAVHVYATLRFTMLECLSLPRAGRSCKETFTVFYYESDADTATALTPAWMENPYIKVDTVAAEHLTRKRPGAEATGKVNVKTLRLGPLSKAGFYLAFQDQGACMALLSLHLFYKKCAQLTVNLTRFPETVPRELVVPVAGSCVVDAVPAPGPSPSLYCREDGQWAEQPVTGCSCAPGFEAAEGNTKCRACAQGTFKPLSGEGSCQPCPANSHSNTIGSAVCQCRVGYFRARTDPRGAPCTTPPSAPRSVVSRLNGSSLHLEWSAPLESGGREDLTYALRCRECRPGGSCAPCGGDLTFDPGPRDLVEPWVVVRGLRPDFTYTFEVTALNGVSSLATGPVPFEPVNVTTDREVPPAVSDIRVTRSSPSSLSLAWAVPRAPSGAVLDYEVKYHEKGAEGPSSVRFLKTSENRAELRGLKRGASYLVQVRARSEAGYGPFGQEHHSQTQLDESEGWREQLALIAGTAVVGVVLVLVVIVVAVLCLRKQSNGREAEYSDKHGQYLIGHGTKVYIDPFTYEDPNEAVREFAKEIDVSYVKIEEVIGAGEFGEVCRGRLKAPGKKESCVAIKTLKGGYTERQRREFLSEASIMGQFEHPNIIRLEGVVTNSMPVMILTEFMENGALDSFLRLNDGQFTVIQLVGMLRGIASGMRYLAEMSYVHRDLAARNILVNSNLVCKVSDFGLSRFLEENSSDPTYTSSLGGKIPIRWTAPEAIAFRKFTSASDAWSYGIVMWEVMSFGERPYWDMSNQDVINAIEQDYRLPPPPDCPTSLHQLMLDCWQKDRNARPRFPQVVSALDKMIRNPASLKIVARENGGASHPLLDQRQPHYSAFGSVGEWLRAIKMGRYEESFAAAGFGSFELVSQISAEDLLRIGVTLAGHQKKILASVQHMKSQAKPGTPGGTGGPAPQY
pIC50: −log10 of the molar value.
property.measured: pIC50

[[record]]
molecule = "Cc1cccc(C)c1NC(=O)Nc1ccc(-c2cccc(NC(=O)C3CC3)n2)cc1 [CDAU-25]"
property_measured = "pIC50"
result = "< 6.00"

[[record]]
molecule = "O=C(Nc1ccc(-c2cccc(NC(=O)C3CC3)n2)cc1)Nc1cccc(Cl)c1 [CDAU-18]"
property_measured = "pIC50"
result = "< 6.00"

[[record]]
molecule = "CC(C)c1cccc(NC(=O)Nc2ccc(-c3cccc(NC(=O)C4CC4)n3)cc2)c1 [CDAU-17]"
property_measured = "pIC50"
result = 6.77

[[record]]
molecule = "O=C(Nc1ccc(OC(F)(F)F)cc1)Nc1ccc(-c2cccc(NC(=O)C3CC3)n2)cc1 [CDAU-19]"
property_measured = "pIC50"
result = "< 6.00"

[[record]]
molecule = "Cc1ccc(NC(=O)Nc2ccc(-c3cccc(NC(=O)C4CC4)n3)cc2)cc1Cl [CDAU-13]"
property_measured = "pIC50"
result = "< 6.00"

[[record]]
molecule = "O=C(Nc1ccc(F)cc1)Nc1ccc(-c2cccc(NC(=O)C3CC3)n2)cc1 [CDAU-14]"
property_measured = "pIC50"
result = "< 6.00"

[[record]]
molecule = "O=C(Nc1ccc(-c2cccc(NC(=O)C3CC3)n2)cc1)Nc1ccccc1Cl [CDAU-16]"
property_measured = "pIC50"
result = "< 6.00"

[[record]]
molecule = "O=C(Nc1ccc(-c2cccc(NC(=O)C3CC3)n2)cc1)Nc1ccc(Cl)c(C(F)(F)F)c1 [CDAU-12]"
property_measured = "pIC50"
result = "< 6.00"

[[record]]
molecule = "O=C(Nc1ccc(-c2cccc(NC(=O)C3CC3)n2)cc1)Nc1cccc(C(F)(F)F)c1 [CDAU-21]"
property_measured = "pIC50"
result = 6.79

